B1: Osa-1-4 twister ribozyme (parent)
chain: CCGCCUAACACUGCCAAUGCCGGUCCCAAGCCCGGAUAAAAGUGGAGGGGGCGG

# Variants of: B1
# procedure-details: self-cleavage, relative activity (ratio to wild type); higher = more cleavage; co-transcriptional
observed-property: self-cleavage
Just the number, please, no unit attached.

mutation-list	data-value
A41C G53U	0.28
C31U U37A	0.84
A10G G23A	0.1

Could you tell me which self-cleavage is on file for A41G G49A ? 0.08

Could you tell me which self-cleavage is on file for G50C U18A ? 0.95

Could you tell me which self-cleavage is on file for G23C G50A ? 0.04

Could you tell me which self-cleavage is on file for A7G C14U ? 0.1
